B1: Retinoic acid receptor beta, residues 85 to 161; numbered along this chain, P10826 (parent)
chain: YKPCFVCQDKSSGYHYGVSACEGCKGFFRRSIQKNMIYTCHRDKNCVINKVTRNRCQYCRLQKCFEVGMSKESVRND

variants of: B1; test: abundance fitness (aPCA) (normalised: wild type 0, dead -1); higher = more abundant; growth selection in yeast, the domain comes from the species named; conditions: Homo sapiens
Note that class boundaries on abundance fitness are lower range: < -0.3; middle range: ≥ -0.3 and < -0.04; upper range: ≥ -0.04

Q57N
upper range
V47P
upper range
K2F
middle range

[in] The entry to classify is F28L ; which class holds it?
[out] lower range

[in] The entry to classify is S19Q ; which class holds it?
[out] upper range

[in] The entry to classify is F27D ; which class holds it?
[out] lower range

[in] The entry to classify is R60M ; which class holds it?
[out] upper range

[in] The entry to classify is C59W ; which class holds it?
[out] lower range

[in] The entry to classify is Y58P ; which class holds it?
[out] lower range

[in] The entry to classify is F28Y ; which class holds it?
[out] lower range

[in] The entry to classify is R42N ; which class holds it?
[out] upper range
